# Kd per record follows
- Target of assay: T1, Human LAG3-His: [VEGF leader]-LAG3_H-[His9G] (human, UniProt P18627 23-450)
- T1 construct: also called human LAG3-His tagged recombinant protein; hLAG3-His
- T1 sequence: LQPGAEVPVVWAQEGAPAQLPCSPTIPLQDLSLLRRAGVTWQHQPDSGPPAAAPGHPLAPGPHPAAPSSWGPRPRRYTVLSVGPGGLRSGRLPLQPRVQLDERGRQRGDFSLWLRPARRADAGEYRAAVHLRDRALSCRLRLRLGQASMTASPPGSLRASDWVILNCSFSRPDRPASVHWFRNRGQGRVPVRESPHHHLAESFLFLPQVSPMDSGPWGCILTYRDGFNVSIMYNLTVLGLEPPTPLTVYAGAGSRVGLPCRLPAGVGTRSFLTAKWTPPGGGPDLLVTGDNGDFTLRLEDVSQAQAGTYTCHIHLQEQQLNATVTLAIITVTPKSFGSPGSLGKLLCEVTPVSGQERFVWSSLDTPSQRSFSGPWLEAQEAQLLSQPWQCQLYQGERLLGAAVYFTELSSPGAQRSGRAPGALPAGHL
- Experiment: SPR (Biacore T200), antibody captured on goat anti-mouse Fc, human LAG3-His as analyte, 1:1 Langmuir fit
Numbers only here, please. The scale is nM.

Use the examples below as a reference point.
Input: Return value of Kd for input mouse anti-human LAG3 antibody LB145.22D2.E1.1D1 (antibody, mouse IgG2a, V domains shown, also called Lag3 clone 22D2; LB145.22D2.E1.D1) VH: EVLLLQSGPELVKPGTSVKIPCKASGYTFTDYNVDWVKQRHGKGLEWIGDINPNNGGTIYSQKFKGKATLTVDKSSSTAFMELRSLTSEDTAVYFCARNYRWFGAMDHWGQGTSVTVSS VL: DIVLTQSPASLAVSPGQRATISCKASQSLDYEGDSDMNWYQQKPGQPPRLLISGASNLESGIPARFSGSGSGTDFTVNIHPVEEEDAATYYCQQSTEDPRTFGGGTKLEIK , no commentary.
Output: 0.00277

Input: Return value of Kd for input mouse anti-human LAG3 antibody LB148.19E8.G1.1A1 (antibody, mouse IgG2b, V domains shown, also called Lag3 clone 19E8) VH: QIRLQQSGPELVKPGASVKISCKASGSSFTDYYINWVKQKPGQGLEWIGWIYPGSGNSIYNENFKAKATLTVDTSSSTAYMHLSSLTSEDTAVYFCAREADYDDALDYWGQGTSVTVSS VL: HILLTQSPAILSVSPGERVSFSCRASQSIGTSIHWYQQRTNGSPRLLIKYASESISGIPSRFSGSGSGTDFTLSINSVESEDIADYYCQQSNSWPTYTFGGGTKLEIK , no commentary.
Output: 0.0147

Input: Return value of Kd for input mouse anti-human LAG3 antibody LB148.11C9.1C1 (antibody, mouse IgG1, V domains shown, also called Lag3 clone 11C9) VH: QVQLQQPGAELVMPGASAKMSCKASGYTLTDYWMHWVKQRPGQGLEWIGAIDISDSYSSYNQKFKGKATLTVDESSSTAYMQLTSLTSEDSAVYYCARSPFYNSRGGNYFDYWGQGTTLTVSS VL: DIQMTQTTSSLSASLGDRVTISCRASQDISNYLNWYQQKPDGTVKLLIYYTSRLHSGVPSRFSGSGSGTDYSLTISNLEQEDIATYFCQQGDTLPPWTFGGGTKLEIK , no commentary.
Output: 1.47

Pending binder:
Input: Return value of Kd for input mouse anti-human LAG3 antibody LB148.4A10.1H1 (antibody, mouse IgG2a, V domains shown, also called Lag3 clone 4A10) VH: EVQLLQSGAELVRSGASVKLSCTASGFNIEDYYMHWMKQRPEQGLEWIGWIDPVNGDTEYAPKFQGKATMTADTSSNTAYLHLNSLTSEDTAVYYCNFYDGYLFAFWGQGTLVTVSA VL: DIVLTQAAPSVPVTPGESVSISCRSSKSLLHSDGNTYLYWLLQRPGQSPQLLIYRMSNLASGVPDRFSGSGSGTVFTLRISRLEAEDVGIYYCMQHLEYPFTFGGGTKLEIK , no commentary.
Output: 0.0903
